This collection of values is drawn from patent US20050202505A1.

Target: recombinant type-3 human 3a-HSD (Homo sapiens, UniProt P52895)
Construct: Full length type III 3a-HSD cDNA is amplified by RT-PCR from human fetal brain total RNA
Sequence (P52895 whole entry): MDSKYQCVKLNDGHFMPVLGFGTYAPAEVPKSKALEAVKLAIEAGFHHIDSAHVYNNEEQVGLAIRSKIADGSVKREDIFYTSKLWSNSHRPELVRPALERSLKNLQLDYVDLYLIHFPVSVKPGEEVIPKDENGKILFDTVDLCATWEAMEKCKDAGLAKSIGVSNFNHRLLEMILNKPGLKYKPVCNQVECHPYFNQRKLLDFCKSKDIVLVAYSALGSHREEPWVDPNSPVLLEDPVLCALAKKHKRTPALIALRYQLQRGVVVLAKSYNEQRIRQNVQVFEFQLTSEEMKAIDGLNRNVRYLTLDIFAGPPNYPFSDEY
Assay: functional in vitro assay, oxidation of 3H-ALLO to 3H-5α-DHP
Settings: NADP+, pH 7.4, 37° C., read-out: Ki OX
pKi: −log10 of the molar value.
test readout: pKi

Return value of pKi for input `CC(=O)c1cc2ccccc2o1` , no commentary.
~3.88
